src = a melting point compilation (Tetko et al.; mined from patent text by program, amines drawn as free bases though some values may be those of a salt)

Exercise: state measured melting point for each of the molecules provided.

Lookup: What measured melting point goes with `O=C(Nc1ccc(Oc2ccccc2)cc1)N1CCN(c2ccnc3cc(Cl)ccc23)CC1` ?
Found: 159 to 161 °C

Lookup: Name the reported melting point value associated with the molecule CC(=O)OC1CCc2cc(N(C(C)=O)S(C)(=O)=O)c(Oc3ccccc3)cc21 (configuration not stated)
Found: 70 °C

Lookup: Using the record for O=C1c2ccc(Cl)cc2CC1Cl (configuration not stated) , report its melting point.
Found: 63 to 66 °C

Lookup: Query (molecule): `CCOC(=O)C(=NOC(C)(C)C(=O)OC(C)(C)C)c1csc(NC(c2ccccc2)(c2ccccc2)c2ccccc2)n1` ; field requested: melting point
Found: 124 to 125 °C

Lookup: Need melting point, item `O=C1NC(=O)C(=Cc2ccc(OCCc3ccccc3)cc2)S1`
Found: 185 to 187 °C

Lookup: Could you share which melting point value was measured for `CC1(C)CC(=O)c2c(nc(Cc3ccc(Cl)cc3)c3[nH]c4ccccc4c23)C1` ?
Found: 205 to 207 °C

Lookup: Look up melting point for this molecule: `CCc1nn2c(I)cccc2c1N(CC)CCF`
Found: 51.2 to 53.6 °C
